Test system: PH (Ph+ ALL PD-LTC)
PROTOCOL NOTES: XTT cell viability, PD-LTC PH
CONDITION SUMMARY: Table 1
ASSAY METRIC: IC50 (µM)

>  <CHEMICAL STRUCTURE>
O=C(c1cccc(-c2cc(Nc3ccc(OC(F)(F)F)cc3)ncn2)c1)N1CCN(c2ccc(C(F)(F)F)cn2)CC1

>  <ASSAY METRIC>
IC50

>  <UNIT SPEC>
µM

>  <ENDPOINT VALUE>
0.13

$$$$

###

Tested on: KÖ (Ph+T315I-p185-BCR-ABL ALL)
PROTOCOL NOTES: XTT cell viability, PD-LTC KÖ
Assay type: cell-based, human
CONDITION SUMMARY: Table 1

>  <COMPOUND>
O=C(c1cccc(-c2cc(Nc3ccc(OC(F)(F)F)cc3)ncn2)c1)N1CCN(c2ccc(C(F)(F)F)cn2)CC1 [Compound 34]

>  <TEST TARGET>
KÖ (Ph+T315I-p185-BCR-ABL ALL)

>  <IC50 (nM)>
2370

$$$$
